Reference source for all entries: ChEMBL document CHEMBL5154922

Species on record: Sus scrofa
assay-details: Ratio of IC50 for Inhibition of N-terminal Flag-GFP-TEV site-Met48 recombinant pig gastric H(+)/K(+) ATPase alpha A123V mutant/beta subunit to IC50 for Inhibition of N-terminal Flag-GFP-TEV site-Met48 recombinant pig gastric H(+)/K(+) ATPase alpha/beta subunit
value-type: Ratio IC50
// return just the number, without any unit appended

Sample Cc1nc2cc(C(=O)N(C)C)cc(O[C@H]3CCOc4cc(F)cc(F)c43)c2[nH]1 — what was its Ratio IC50? 14

Sample COCCO[C@@H]1c2ccn3c(C)c(C)nc3c2N[C@H](c2ccccc2)[C@H]1O — what was its Ratio IC50? 14

Sample Cc1nc(Nc2ccc(F)cc2)nc(N2CCc3ccccc3C2C)c1C (centres undefined) — what was its Ratio IC50? 3.3

Sample Cc1nc2c(OCc3ccccc3)cccn2c1CC#N — what was its Ratio IC50? 6.7

---

assay-details: Inhibition of N-terminal Flag-GFP-TEV site-Met48 recombinant pig gastric H(+)/K(+) ATPase alpha L809F mutant/beta subunit activity in HEK293 cells by colorimetric microplate reader
Format: cell-based, Sus scrofa
Give pIC50 for every item shown.
# pIC50 is unitless: minus log10 of the molar concentration; print number only

Sample Cc1nc2c(OCc3ccccc3)cccn2c1CC#N — what was its pIC50? 4.96

Sample Cc1nc(Nc2ccc(F)cc2)nc(N2CCc3ccccc3C2C)c1C (centres undefined) — what was its pIC50? 5.06

Sample Cc1nc2cc(C(=O)N(C)C)cc(O[C@H]3CCOc4cc(F)cc(F)c43)c2[nH]1 — what was its pIC50? 4.21

---

Species: Sus scrofa
assay-details: Ratio of IC50 for Inhibition of N-terminal Flag-GFP-TEV site-Met48 recombinant pig gastric H(+)/K(+) ATPase alpha Y799F mutant/beta subunit to IC50 for Inhibition of N-terminal Flag-GFP-TEV site-Met48 recombinant pig gastric H(+)/K(+) ATPase alpha/beta subunit
Give Ratio IC50 for every item shown.
// return just the number, without any unit appended

Sample Cc1nc(Nc2ccc(F)cc2)nc(N2CCc3ccccc3C2C)c1C (centres undefined) — what was its Ratio IC50? 1.2

Sample Cc1nc2c(OCc3ccccc3)cccn2c1CC#N — what was its Ratio IC50? 3.5

Sample COCCO[C@@H]1c2ccn3c(C)c(C)nc3c2N[C@H](c2ccccc2)[C@H]1O — what was its Ratio IC50? 11

Sample Cc1nc2cc(C(=O)N(C)C)cc(O[C@H]3CCOc4cc(F)cc(F)c43)c2[nH]1 — what was its Ratio IC50? 2.9

---

Give Ratio IC50 for every item shown.
Species on record: Sus scrofa
assay-details: Ratio of IC50 for Inhibition of N-terminal Flag-GFP-TEV site-Met48 recombinant pig gastric H(+)/K(+) ATPase alpha A335V mutant/beta subunit to IC50 for Inhibition of N-terminal Flag-GFP-TEV site-Met48 recombinant pig gastric H(+)/K(+) ATPase alpha/beta subunit
// return just the number, without any unit appended

Sample COCCO[C@@H]1c2ccn3c(C)c(C)nc3c2N[C@H](c2ccccc2)[C@H]1O [SORAPRAZAN] — what was its Ratio IC50? 33

Sample Cc1nc2c(OCc3ccccc3)cccn2c1CC#N — what was its Ratio IC50? 30

Sample Cc1nc2cc(C(=O)N(C)C)cc(O[C@H]3CCOc4cc(F)cc(F)c43)c2[nH]1 [TEGOPRAZAN] — what was its Ratio IC50? 87

Sample Cc1nc(Nc2ccc(F)cc2)nc(N2CCc3ccccc3C2C)c1C (centres undefined) [REVAPRAZAN] — what was its Ratio IC50? 2.6

---

assay-details: Inhibition of N-terminal Flag-GFP-TEV site-Met48 recombinant pig gastric H(+)/K(+) ATPase alpha A123V mutant/beta subunit activity in HEK293 cells by colorimetric microplate reader
Type: cell-based, Sus scrofa
Give pIC50 for every item shown.
# pIC50 is unitless: minus log10 of the molar concentration; print number only

Sample Cc1nc(Nc2ccc(F)cc2)nc(N2CCc3ccccc3C2C)c1C (centres undefined) [REVAPRAZAN] — what was its pIC50? 5.11

Sample Cc1nc2cc(C(=O)N(C)C)cc(O[C@H]3CCOc4cc(F)cc(F)c43)c2[nH]1 [TEGOPRAZAN] — what was its pIC50? 4.48

Sample COCCO[C@@H]1c2ccn3c(C)c(C)nc3c2N[C@H](c2ccccc2)[C@H]1O [SORAPRAZAN] — what was its pIC50? 5.37

Sample Cc1nc2c(OCc3ccccc3)cccn2c1CC#N — what was its pIC50? 4.85

---

Give Ratio IC50 for every item shown.
Species: Sus scrofa
assay-details: Ratio of IC50 for Inhibition of N-terminal Flag-GFP-TEV site-Met48 recombinant pig gastric H(+)/K(+) ATPase alpha L809F mutant/beta subunit to IC50 for Inhibition of N-terminal Flag-GFP-TEV site-Met48 recombinant pig gastric H(+)/K(+) ATPase alpha/beta subunit
// return just the number, without any unit appended

Sample Cc1nc2c(OCc3ccccc3)cccn2c1CC#N — what was its Ratio IC50? 5.2

Sample Cc1nc(Nc2ccc(F)cc2)nc(N2CCc3ccccc3C2C)c1C (centres undefined) — what was its Ratio IC50? 3.8

Sample Cc1nc2cc(C(=O)N(C)C)cc(O[C@H]3CCOc4cc(F)cc(F)c43)c2[nH]1 — what was its Ratio IC50? 27

---

Species: Sus scrofa
assay-details: Ratio of IC50 for Inhibition of N-terminal Flag-GFP-TEV site-Met48 recombinant pig gastric H(+)/K(+) ATPase alpha A339S mutant/beta subunit to IC50 for Inhibition of N-terminal Flag-GFP-TEV site-Met48 recombinant pig gastric H(+)/K(+) ATPase alpha/beta subunit
value-type: Ratio IC50
// return just the number, without any unit appended

Sample COCCO[C@@H]1c2ccn3c(C)c(C)nc3c2N[C@H](c2ccccc2)[C@H]1O — what was its Ratio IC50? 0.97

Sample Cc1nc2cc(C(=O)N(C)C)cc(O[C@H]3CCOc4cc(F)cc(F)c43)c2[nH]1 — what was its Ratio IC50? 0.78

Sample Cc1nc(Nc2ccc(F)cc2)nc(N2CCc3ccccc3C2C)c1C (centres undefined) — what was its Ratio IC50? 0.48

Sample Cc1nc2c(OCc3ccccc3)cccn2c1CC#N — what was its Ratio IC50? 0.48
